Molecular target: H-2 I-A^b (Mus musculus, UniProt P14434+P14483)
Assay: I-A^b binding affinity, competitive inhibition assay with purified MHC and radio-labeled ligand
Details: Table 1; displacement of 50% of radio-labeled I-A^b ligand, purified MHC; IC50 approximates Kd
Ends that are not written are not given here.
observation-type: IC50 (nM)
Your answer should be a plain number; it is taken to be in nM.

HLEYVSSELRKSLQV : 22200

Next up:
Problem: Form field - read-out: IC50; system: H-2 I-A^b (Mus musculus, UniProt P14434+P14483); submitted item: NNYALFLSPRAQQAS
Solution: 1300

----------
Target: H-2 I-A^b (Mus musculus, UniProt P14434+P14483)
Assay: I-A^b binding affinity, competitive inhibition assay with purified MHC and radio-labeled ligand
Settings: Table 2; ApoB3501–3516- and ApoB978–993-related overlapping peptides; read-out: H-2 I-Ab (IC50 nM)
Ends that are not written are not given here.
Below, each entry is listed alongside its reported IC50.

Sample records with IC50:
NVYLNSKGTRSSVRLQ : 907 nM
SFTKGNIKSSFLSQEY : 1170 nM

Next up:
Problem: # get_value(readout='IC50', item= SSTESASYYPLTGDTR )
Solution: 1260 nM

// data source = paper PMC3873602
